Exercise: state measured IC50, microneutralization of GP-pseudotyped lentiviral vector on HEK293 cells for each of the binders provided.
Target: T1, SUDV GP on pseudotyped lentiviral vector (Sudan virus (SUDV), UniProt Q7T9D9 33-676)
T1 sequence: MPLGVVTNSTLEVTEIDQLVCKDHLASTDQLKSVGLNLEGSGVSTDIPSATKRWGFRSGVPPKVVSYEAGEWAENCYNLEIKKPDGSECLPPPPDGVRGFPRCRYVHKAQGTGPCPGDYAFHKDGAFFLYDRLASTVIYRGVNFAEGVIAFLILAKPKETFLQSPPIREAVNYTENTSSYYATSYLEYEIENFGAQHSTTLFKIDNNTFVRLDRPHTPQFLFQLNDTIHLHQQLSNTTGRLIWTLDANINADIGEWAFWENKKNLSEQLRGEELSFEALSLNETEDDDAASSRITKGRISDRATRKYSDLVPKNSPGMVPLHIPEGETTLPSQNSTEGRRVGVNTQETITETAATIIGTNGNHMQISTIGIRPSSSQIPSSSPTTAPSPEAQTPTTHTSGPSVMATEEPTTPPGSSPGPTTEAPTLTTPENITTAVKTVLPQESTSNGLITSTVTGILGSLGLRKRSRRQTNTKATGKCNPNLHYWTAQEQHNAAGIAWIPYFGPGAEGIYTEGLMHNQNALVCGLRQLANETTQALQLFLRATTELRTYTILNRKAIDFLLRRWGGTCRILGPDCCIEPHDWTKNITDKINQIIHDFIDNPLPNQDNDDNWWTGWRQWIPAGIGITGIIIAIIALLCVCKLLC
Assay: cell-based or functional assay

Task: // lookup IC50, microneutralization of GP-pseudotyped lentiviral vector on HEK293 cells for antibody 232L (antibody, V domains shown) VH: KSQLVESGGGLVQPGGSLRLSCAASGFTFDAYAMHWVRQAPGEGLEWVTAISWSGSSTYYADSVKGRFTFSRDNAKNSLYLEMNSLRADDTAFYYCVKGGVYNWFDVWGPGVLVTVSS VL: QSVLTQPPSVSGAPGQRVTISCTGSRSNIGGYYVSWYQQFPGTTPKLLIYQDNKRPSGVSDRFSGSKSGTSASLTITGLQTEDEADYYCLSYDSSLNGWVFGGGTRLTVL
Result: > 10 mg/L

Task: // lookup IC50, microneutralization of GP-pseudotyped lentiviral vector on HEK293 cells for antibody 191L (antibody, V domains shown) VH: EVQLVESGGGLVQPGGSLRLSCAASGFTFSSYGIHWVRQAPGKGLEWVAIISYDGNKKFHADSVKDRFTISRDNSKNMLYLQMNNLKLEDTAVYYCARAYDSGYFAGSVFYYWGQGVLVTVSS VL: EVVFTQPHSVSGSPGQTVTISCTRSSGSIDSEYVQWYQQRPGNAPTTVIYKDNQRPSGVPDRFSGSIDSSSNSASLAISGLKSEDEADYYCQSADGNYHPVFGEGTRLTVL
Result: > 10 mg/L

Task: // lookup IC50, microneutralization of GP-pseudotyped lentiviral vector on HEK293 cells for antibody 315L (antibody, V domains shown) VH: QVQLQESGPGLVKPSETLSLTCTVSGGSITGNYWTWVRQPPGKGLQYIGRFDAGGKTYYNPPLKSRVSILGDKSKNQVSLNLTSVTVADTGVYYCAREQWGQLLSGSFDVWGRGVLVTVSS VL: SYELTQPPSVSVSPGQTARITCSGDALPDYYAHWYQQKSGQAPMLVIYKDTERPSGIPERFSGSSSGTTVSLTISGVQAEDEADYYCQSGDSSGNHWVFGGGTRLTVL
Result: > 10 mg/L
